# test_system: α4β2 nACh receptors (Homo sapiens, UniProt P17787+P43681)
# Sequence (P43681 27-627): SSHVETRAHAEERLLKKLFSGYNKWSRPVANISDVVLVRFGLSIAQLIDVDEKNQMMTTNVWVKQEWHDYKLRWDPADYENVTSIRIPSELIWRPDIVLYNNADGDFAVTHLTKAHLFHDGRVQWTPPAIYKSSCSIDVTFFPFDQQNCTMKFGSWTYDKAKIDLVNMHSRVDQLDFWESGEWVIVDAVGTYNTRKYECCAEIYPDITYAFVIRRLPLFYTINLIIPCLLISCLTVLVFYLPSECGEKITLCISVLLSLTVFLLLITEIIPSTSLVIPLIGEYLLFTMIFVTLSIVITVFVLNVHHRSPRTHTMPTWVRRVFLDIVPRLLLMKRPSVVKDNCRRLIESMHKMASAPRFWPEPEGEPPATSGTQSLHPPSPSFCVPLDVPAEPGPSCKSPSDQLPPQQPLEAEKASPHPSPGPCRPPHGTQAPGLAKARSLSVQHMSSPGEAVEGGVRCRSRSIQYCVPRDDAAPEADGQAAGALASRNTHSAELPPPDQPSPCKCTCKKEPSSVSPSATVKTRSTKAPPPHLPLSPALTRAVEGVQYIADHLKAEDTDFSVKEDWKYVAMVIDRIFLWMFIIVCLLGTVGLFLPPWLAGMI
# Sequence (P17787 26-502): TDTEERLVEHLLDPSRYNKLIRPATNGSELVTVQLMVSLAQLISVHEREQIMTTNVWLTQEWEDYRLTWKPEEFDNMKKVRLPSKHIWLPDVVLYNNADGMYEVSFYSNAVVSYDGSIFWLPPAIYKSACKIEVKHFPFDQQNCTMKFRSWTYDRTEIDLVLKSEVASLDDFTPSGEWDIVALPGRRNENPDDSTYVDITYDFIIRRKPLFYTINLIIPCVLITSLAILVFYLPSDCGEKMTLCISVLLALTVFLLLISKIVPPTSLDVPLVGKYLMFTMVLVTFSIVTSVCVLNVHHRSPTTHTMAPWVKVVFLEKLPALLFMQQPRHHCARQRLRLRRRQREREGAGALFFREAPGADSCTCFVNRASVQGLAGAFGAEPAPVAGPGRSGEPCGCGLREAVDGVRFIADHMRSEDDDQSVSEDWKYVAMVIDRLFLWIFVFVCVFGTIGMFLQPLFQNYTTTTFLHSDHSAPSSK
# method: Antagonism
pIC50: −log10 of the molar value. Where a name gives a salt, the structure may show the parent alone.
Lab note: compare pIC50 against 5. Equal or greater, write MET. Smaller, write NOT MET.

Example cases with answers are listed next.
>>> df
                                   compound  category_label
0  CCCc1[nH]c2ccccc2c1CCNC [Compound 10, N-Methyl-2-(n-propyl)tryptamine Oxalate]         NOT MET
1  C=CCc1[nH]c2cc(Br)ccc2c1CCNC [Compound 5]             MET
2  CCC(C)c1[nH]c2ccccc2c1CCNC (centres unmarked) [Compound 9, N-Methyl-2-sec-butyltryptamine Oxalate]         NOT MET
3  CNCCc1c[nH]c2cc(Br)ccc12 [Compound 3, N-Methyl-6-bromotryptamine]         NOT MET

Please examine the following record next.
Answer whether pIC50 of CCCc1[nH]c2cc(Br)ccc2c1CCNC [Compound 4] is greater than or equal to 5.
NOT MET
